Every entry's value here was drawn from the NIST ThermoML archive (doi:10.1021/je901050v).

- Protocol description: refractive index (Na D-line) (dimensionless)
- Test conditions: 333.15 K; 101.33 kPa; Liquid; Standard Abbe refractometry
Assay metric: refractive index
Answers are plain numbers.

Examples with answers:
Compound	refractive index
CCCCCCCCn1cc[n+](CCC#N)c1.[Br-] [3-(2-cyanoethyl)-1-octyl-1H-imidazolium bromide]	1.50604
CCCCCCCCCCn1cc[n+](CCC#N)c1.[Br-] [3-(2-cyanoethyl)-1-decyl-1H-imidazolium bromide]	1.50279
CCCCCCn1cc[n+](CCC#N)c1.[Br-] [3-(2-cyanoethyl)-1-hexyl-1H-imidazolium bromide]	1.52117

Okay, next one:
Query (compound): CCCCn1cc[n+](CCC#N)c1.[Br-] [1-butyl-3-(2-cyanoethyl)-1H-imidazolium bromide] ; field requested: refractive index
1.53748
